Attribution: patent US20210054094A1

CAR-J2 EC50 (PGLALA-CAR-J activation, L363 target cells): recorded values
molecular target: human GPRC5D (human, UniProt Q9NZD1 1-345); assay: cell-based or functional assay
Sequence (Q9NZD1 whole entry): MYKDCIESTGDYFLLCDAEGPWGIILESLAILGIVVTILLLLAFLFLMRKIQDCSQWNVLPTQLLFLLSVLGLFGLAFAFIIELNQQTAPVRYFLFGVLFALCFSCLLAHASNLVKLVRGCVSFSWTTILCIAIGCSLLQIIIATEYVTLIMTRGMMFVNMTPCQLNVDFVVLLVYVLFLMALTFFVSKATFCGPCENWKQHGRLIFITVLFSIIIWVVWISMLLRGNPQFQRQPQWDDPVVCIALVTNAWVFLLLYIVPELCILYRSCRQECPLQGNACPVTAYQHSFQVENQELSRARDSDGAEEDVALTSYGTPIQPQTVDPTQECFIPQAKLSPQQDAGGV
Note: unit ng/mL is implicit; provide only the numeric part.

Below, each entry is followed by its recorded CAR-J2 EC50 (PGLALA-CAR-J activation, L363 target cells) result.
INSERT INTO measurements (binder, observed_measurement) VALUES
  ('P1AE5718 (antibody, V domains shown) VH: ELQLLESGGGLVQPGGSLRLSCAASGFTFSKYAMAWVRQAPGKGLEWVASISTGGVNTYYRDSVKARFTISRDNAKNTLYLQMNSLRAEDTAVYYCATHTGDYFDYWGQGTMVTVSS VL: DIQMTQSPSSLSASVGDRVTITCRASQSVSISGINLMNWYQQKPGKQPKLLIYHASILASGVPSRFSGSGSGTDFTLTISSLQPEDFATYYCQQTRESPLTFGQGTRLEIK', 105),
  ('P1AE5714 (antibody, V domains shown) VH: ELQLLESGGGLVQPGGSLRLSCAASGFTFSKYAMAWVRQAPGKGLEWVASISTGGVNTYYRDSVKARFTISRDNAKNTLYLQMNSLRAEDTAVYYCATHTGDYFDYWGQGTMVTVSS VL: DIVMTQSPDSLAVSLGERATINCRASQSVSISGINLMNWYQQKPGQQPKLLIYHASILASGVPDRFSGSGSGTDFTLTISSLQAEDVAVYYCQQTRESPLTFGQGTRLEIK', 5.5),
  ('P1AE5720 (antibody, V domains shown) VH: EVQLLESGGGLVQPGGSLRLSCAASGFTFSKYAMAWVRQAPGKGLEWVASISTGGVNTYYADSVKGRFTISRDNSKNTLYLQMNSLRAEDTAVYYCATHTGDYFDYWGQGTMVTVSS VL: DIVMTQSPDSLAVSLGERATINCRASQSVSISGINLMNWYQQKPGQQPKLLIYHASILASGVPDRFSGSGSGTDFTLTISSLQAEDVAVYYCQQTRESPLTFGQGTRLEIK', 6.3);

Using the record for P1AE5710 (antibody, V domains shown) VH: EVQLLESGGGLVQPGGSLRLSCAASGFTFSKYAMAWVRQAPGKGLEWVASISTGGVNTYYRDSVKARFTISRDNSKNTLYLQMNSLRAEDTAVYYCATHTGDYFDYWGQGTMVTVSS VL: EIVLTQSPGTLSLSPGERATLSCRASQSVSISGINLMNWYQQKPGQQPKLLIYHASILASGIPDRFSGSGSGTDFTLTISRLEPEDFAVYYCQQTRESPLTFGQGTRLEIK , state its measured CAR-J2 EC50 (PGLALA-CAR-J activation, L363 target cells).
3.5

Using the record for P1AE5717 (antibody, V domains shown) VH: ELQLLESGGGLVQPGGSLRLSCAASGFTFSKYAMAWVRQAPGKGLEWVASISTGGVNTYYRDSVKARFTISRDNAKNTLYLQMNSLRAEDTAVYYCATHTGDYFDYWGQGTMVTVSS VL: EIVLTQSPGTLSLSPGERATLSCRASQSVSISGINLMNWYQQKPGQQPKLLIYHASILASGIPDRFSGSGSGTDFTLTISRLEPEDFAVYYCQQTRESPLTFGQGTRLEIK , state its measured CAR-J2 EC50 (PGLALA-CAR-J activation, L363 target cells).
79.9
